EXPERIMENTAL_TARGET: CDK2/Cyclin A2 (Homo sapiens, UniProt P24941)
ASSAY_PROTOCOL: Inhibition of CDK2/cyclin A2 (unknown origin) using histone H1 and ATP as substrate incubated for 40 mins by kinase-glo luminescence assay
VALUE_TYPE: IC50 (µM)

// below: answered molecules
Answer briefly: IC50 recorded on CDK2/Cyclin A2 (Homo sapiens, UniProt P24941) for Cc1cnc(Nc2ccc(S(C)(=O)=O)cc2)nc1Nc1nc2ccccc2s1
0.0378

Please tell me the measured IC50 for Cc1cnc(Nc2ccc(S(N)(=O)=O)cc2)nc1Nc1nc2ccccc2s1 ; system: CDK2/Cyclin A2 (Homo sapiens, UniProt P24941).
0.0217

Enter measured IC50, system CDK2/Cyclin A2 (Homo sapiens, UniProt P24941), for the molecule shown: NS(=O)(=O)c1ccc(Nc2nccc(Nc3nc4ccc(F)cc4s3)n2)cc1
0.0154

# return IC50 for NS(=O)(=O)c1ccc(Nc2ncc(F)c(Nc3nc4ccccc4s3)n2)cc1 , test system: CDK2/Cyclin A2 (Homo sapiens, UniProt P24941)
0.0165

(1) CS(=O)(=O)c1ccc(Nc2ncc(F)c(Nc3nc4ccccc4s3)n2)cc1
(2) Cc1ccc2nc(Nc3nc(Nc4ccc(S(N)(=O)=O)cc4)ncc3F)sc2c1
In terms of reported IC50, does 1 or 2 have the smaller number? # reply format: chosen label
1
(1: 0.0127 µM, 2: 0.0214 µM)
